Source listed as patent US8329717B2.

System: Lolium multiflorum
experimental_protocol: Pre-emergence herbicidal effect
Type: in vivo
stated_conditions: Dosage 320 g/ha, visual scoring after 3 weeks vs untreated controls, 100% = plants have died
value_type: Pre-emergence herbicidal effect LOLMU (%)
Report as a plain number; the unit % is understood.

The recorded Pre-emergence herbicidal effect LOLMU for Cc1ccc2c(c1)[C@H](Nc1nc(C)c(C#N)c(N)n1)[C@@H](C)C2 [Example 1.17] is 100

So, Nc1nc(N[C@@H]2CCCc3ccccc32)ncc1Br [Example 1.97] ? Its Pre-emergence herbicidal effect LOLMU was 100

Lab book: Pre-emergence herbicidal effect LOLMU of Cc1nc(NC2CCOc3ccccc32)nc(N)c1C#N (racemic) [Example 1.25] noted as 100

* * *

Tested on: Setaria viridis
experimental_protocol: Pre-emergence herbicidal effect
Type: in vivo
stated_conditions: Dosage 320 g/ha, visual scoring after 3 weeks vs untreated controls, 100% = plants have died
Record form. Attribute: Pre-emergence herbicidal effect SETVI. Fill in for each entry.
The reply should be a number in %, with the unit left off.

# Pre-emergence herbicidal effect SETVI of N#Cc1cnc(N[C@@H]2CCCc3ccccc32)nc1N [Example 1.30] = 100

Value of Pre-emergence herbicidal effect SETVI reported for the molecule Cc1nc(NC2c3ccccc3CC2C)nc(N)c1[N+](=O)[O-] (racemic) [Example 1.125] is 90

Summary for this molecule, Cc1nc(NC2CCOc3ccccc32)nc(N)c1C#N (racemic) [Example 1.25] : Pre-emergence herbicidal effect SETVI is 100

Record Cc1ccc2c(c1)[C@H](Nc1ncc(Cl)c(N)n1)[C@@H](C)C2 [Example 1.105] . Reported Pre-emergence herbicidal effect SETVI: 100

Noted for Cc1nc(N[C@@H]2CCOc3c(F)cccc32)nc(N)c1C#N [Example 1.26] : its Pre-emergence herbicidal effect SETVI reads 100

For this molecule ( Cc1ccc2c(c1)[C@H](Nc1ncc(C#N)c(N)n1)[C@@H](C)C2 [Example 1.35] ), measured Pre-emergence herbicidal effect SETVI is 100

Pre-emergence herbicidal effect SETVI for Cc1ccc2c(c1)[C@H](Nc1ncc(C#C[Si](C)(C)C)c(N)n1)[C@@H](C)C2 [Example 1.98] is 80

Field Pre-emergence herbicidal effect SETVI (entry Cc1ccc2c(c1)[C@H](Nc1nc(C)c([N+](=O)[O-])c(N)n1)[C@@H](C)C2 [Example 1.120] ) reads 100

// Pre-emergence herbicidal effect SETVI value for Cc1ccc2c(c1)[C@H](Nc1nc(N)c(C#N)c(C3(c4ccc(Cl)cc4Cl)CC3)n1)[C@@H](C)C2 [Example 1.94] : 90

Sample CC[C@H]1Cc2ccccc2[C@@H]1Nc1ncc(C#N)c(N)n1 [Example 1.129] ; Pre-emergence herbicidal effect SETVI observed: 100

molecule Cc1ccc2c(c1)[C@H](Nc1ncc(Br)c(N)n1)[C@@H](C)C2 [Example 1.67] , Pre-emergence herbicidal effect SETVI observed: 100

Item: CCc1nc(N[C@@H]2CCc3ccccc32)nc(N)c1C#N [Example 1.62] | Pre-emergence herbicidal effect SETVI: 90

Per the records, this molecule ( Cc1ccc2c(c1)[C@H](Nc1nc(N)cc(Cl)n1)[C@@H](C)C2 [Example 1.75] ) has Pre-emergence herbicidal effect SETVI equal to 95

Kindly note the recorded Pre-emergence herbicidal effect SETVI for CCc1nc(N[C@@H]2CCCc3ccccc32)nc(N)c1C#N [Example 1.63] , which is 100

Looking up Cc1ccc2c(c1)[C@H](Nc1nc(C)c(C#N)c(N)n1)[C@@H](C)C2 [Example 1.17] , I found its Pre-emergence herbicidal effect SETVI recorded as 100

Quick note, Pre-emergence herbicidal effect SETVI for Nc1nc(N[C@@H]2CCCc3ccccc32)ncc1Cl [Example 1.106] landed at 100

Form: molecule = Cc1nc(NC2CCOc3ccccc32)nc(N)c1[N+](=O)[O-] (racemic) [Example 1.121] ; Pre-emergence herbicidal effect SETVI = 100

Note to self: Pre-emergence herbicidal effect SETVI recorded for CCc1nc(N[C@H]2c3cc(C)ccc3C[C@@H]2C)nc(N)c1C#N [Example 1.61] was 90

What the record says about Cc1nc(NC2CCCc3ccccc32)nc(N)c1[N+](=O)[O-] (racemic) [Example 1.124] : Pre-emergence herbicidal effect SETVI is 80

Pre-emergence herbicidal effect SETVI measured on CC[C@H]1Cc2ccc(C)cc2[C@@H]1Nc1nc(C)c(C#N)c(N)n1 [Example 1.96] = 100

GET /value?item= Nc1nc(N[C@@H]2CCCc3ccccc32)ncc1Br [Example 1.97] &field=Pre-emergence herbicidal effect SETVI returns 100

Just so you know, measured Pre-emergence herbicidal effect SETVI for Cc1ccc2c(c1)[C@H](Nc1ncc(F)c(N)n1)[C@@H](C)C2 [Example 1.56] came out at 100

Recorded result, CC[C@H]1Cc2ccccc2[C@@H]1Nc1nc(C)c([N+](=O)[O-])c(N)n1 [Example 1.126] , Pre-emergence herbicidal effect SETVI: 85

# Pre-emergence herbicidal effect SETVI (molecule: Cc1ccc2c(c1)[C@H](Nc1nc(C)c(I)c(N)n1)[C@@H](C)C2 [Example 1.46] ) is 100

For reference, reported Pre-emergence herbicidal effect SETVI for Cc1nc(N[C@@H]2CCCc3ccccc32)nc(N)c1C#N [Example 1.18] stands at 100

* * *

Test system: Alopecurus myosuroides
experimental_protocol: Pre-emergence herbicidal effect
Format: in vivo
stated_conditions: Dosage 320 g/ha, visual scoring after 3 weeks vs untreated controls, 100% = plants have died
value_type: Pre-emergence herbicidal effect ALOMY (%)
Hi! Could you send only the number? It should be in %, unit omitted.

Lab note: measured Pre-emergence herbicidal effect ALOMY of Cc1nc(NC2CCOc3ccccc32)nc(N)c1C#N (racemic) was 100

Record summary for Cc1ccc2c(c1)[C@H](Nc1nc(C)c(C#N)c(N)n1)[C@@H](C)C2 : reported Pre-emergence herbicidal effect ALOMY = 100

The recorded Pre-emergence herbicidal effect ALOMY for CC[C@H]1Cc2ccccc2[C@@H]1Nc1ncc(C#N)c(N)n1 is 100

* * *

Tested on: Stellaria media
experimental_protocol: Post-emergence herbicidal effect
Assay type: in vivo
stated_conditions: Dosage 320 g/ha, one-leaf stage, visual scoring after ca. 3 weeks vs untreated controls, 100% = plants have died
For each of the compounds below, state its Post-emergence herbicidal effect STEME.
Expressed in %, but write only the number.

Note to self: Post-emergence herbicidal effect STEME recorded for Nc1nc(N[C@@H]2CCCc3ccccc32)ncc1Cl was 80

Field Post-emergence herbicidal effect STEME (entry Cc1ccc2c(c1)[C@H](Nc1ncc(Br)c(N)n1)[C@@H](C)C2 ) reads 90

Entry Cc1ccc2c(c1)[C@H](Nc1nc(C)c(I)c(N)n1)[C@@H](C)C2 — recorded Post-emergence herbicidal effect STEME = 90

Post-emergence herbicidal effect STEME measured on Cc1nc(NC2CCOc3ccccc32)nc(N)c1C#N (racemic) = 100

Field Post-emergence herbicidal effect STEME (entry Cc1ccc2c(c1)[C@H](Nc1nc(C)c(C#N)c(N)n1)[C@@H](C)C2 ) reads 97

For reference, reported Post-emergence herbicidal effect STEME for N#Cc1cnc(N[C@@H]2CCCc3ccccc32)nc1N stands at 80

Recorded Post-emergence herbicidal effect STEME (compound Cc1ccc2c(c1)[C@H](Nc1nc(C)c([N+](=O)[O-])c(N)n1)[C@@H](C)C2 ): 85

The compound identified as Cc1nc(N[C@@H]2CCOc3c(F)cccc32)nc(N)c1C#N registered its Post-emergence herbicidal effect STEME at 90

Quick note, Post-emergence herbicidal effect STEME for Cc1ccc2c(c1)[C@H](Nc1nc(N)cc(Cl)n1)[C@@H](C)C2 landed at 87

* * *

System: Stellaria media
experimental_protocol: Post-emergence herbicidal effect
Format: in vivo
stated_conditions: Dosage 320 g/ha, one-leaf stage, visual scoring after ca. 3 weeks vs untreated controls, 100% = plants have died
value_type: Post-emergence herbicidal effect STEME (%)
Give your result in % as a bare value.

Record CC[C@H]1Cc2ccc(C)cc2[C@@H]1Nc1nc(C)c(C#N)c(N)n1 [Example 1.96] , field Post-emergence herbicidal effect STEME: 95

Measured Post-emergence herbicidal effect STEME, CCc1nc(N[C@H]2c3cc(C)ccc3C[C@@H]2C)nc(N)c1C#N [Example 1.61] : 90

compound Cc1ccc2c(c1)[C@H](Nc1ncc(C#N)c(N)n1)[C@@H](C)C2 [Example 1.35] , Post-emergence herbicidal effect STEME observed: 95

# Post-emergence herbicidal effect STEME (compound: Cc1nc(N[C@@H]2CCCc3ccccc32)nc(N)c1C#N [Example 1.18] ) is 93

Recorded result, Cc1nc(NC2c3ccccc3CC2C)nc(N)c1C#N (racemic) [Example 1.23] , Post-emergence herbicidal effect STEME: 90
